Origin of measurements: patent US20250027068

- assay.system: pooled human IgG (human IgG1,2,3 and 4)
Below, each entry is listed with its recorded Enzyme Activity Endpoint Assay: IgG.
Form field: result (number plus unit)

>>> reading("PRT-192 (protein) MANQEIRYSEVTPYHVTSVWTKGVTPPANFTQGEDVFHAPYVANQGWYDITKTFNGKDDLLCGAATAGNMLHWWFDQNKDQIKRYLEEHPEKQKINFNGEQMFDVKEAIDTKNHQLDSKLFEYFKEKAFPYLSTKHLGVFPDHVIDMFINGYRLSLTNHGPTPVKEGSKDPRGGIFDAVFTRGDQSKLLTSRHDFKEKNLKEISDLIKKELTEGKALGLSHTYANVRINHVINLWGADFDSNGNLKAIYVTDSDDKKLTISNASIGMKKYFVGVNSAGKVAISAKEIKEDNIGAQVLGLFTLSTGQDSWNQTN")
"109 ng/µL"

# protein PRT-307 (protein) MQITSVWTKGVTPLTPEQFRKNNEDVIHAPYLAHQGWYDITKAFDGKDNLLCGAATAGNMLHWWFDQNKTEIEAYLSKHPEKQKIIFNNQELFDLKAAIDTKDSQTNSQLFNYFRDKAFPNLSARQLGVMPDLVLDMFINGYYLNVGKTQSTDVNRPYQDKDKRGGIFDAVFTRGDQTTLLTARHDLKNKGLNDISTIIKQELTEGRALALSHTYANVSISHVINLWGADFNAEGNLEAIYVTDSDANASIGMKKYFVGRNAHGHVAISAKKIEGENIGAQVLGLFTLSSGKDIWQKLS ; its Enzyme Activity Endpoint Assay: IgG = 138 ng/µL
